Measured values drawn from paper PMC5764952 for this set.

B1: Untagged murine saposin A (SapA) [mouse] / His6-tagged murine β-galactocerebrosidase (GALC) [modified: glycosylated; glycosylated] [mouse] (parent complex)
chain 1: MGKSLPCDICKTVVTEAGNLLKDNATQEEILHYLEKTCEWIHDSSLSASCKEVVDSYLPVILDMIKGEMSNPGEVCSALNLCQSLQE
chain 2: YVLDDSDGLGREFDGIGAVSGGGATSRLLVNYPEPYRSEILDYLFKPNFGASLHILKVEIGGDGQTTDGTEPSHMHYELDENYFRGYEWWLMKEAKKRNPDIILMGLPWSFPGWLGKGFSWPYVNLQLTAYYVVRWILGAKHYHDLDIDYIGIWNERPFDANYIKELRKMLDYQGLQRVRIIASDNLWEPISSSLLLDQELWKVVDVIGAHYPGTYTVWNAKMSGKKLWSSEDFSTINSNVGAGCWSRILNQNYINGNMTSTIAWNLVASYYEELPYGRSGLMTAQEPWSGHYVVASPIWVSAHTTQFTQPGWYYLKTVGHLEKGGSYVALTDGLGNLTIIIETMSHQHSMCIRPYLPYYNVSHQLATFTLKGSLREIQELQVWYTKLGTPQQRLHFKQLDTLWLLDGSGSFTLELEEDEIFTLTTLTTGRKGSYPPPPSSKPFPTNYKDDFNVEYPLFSEAPNFADQTGVFEYYMNNEDREHRFTLRQVLNQRPITWAADASSTISVIGDHHWTNMTVQCDVYIETPRSGGVFIAGRVNKGGILIRSATGVFFWIFANGSYRVTADLGGWITYASGHADVTAKRWYTLTLGIKGYFAFGMLNGTILWKNVRVKYPGHGWAAIGTHTFEFAQFDNFRVEAAR

Variants of: B1
Assay: pull-down (immobilised GALC, Coomassie SDS-PAGE, quantified); in the presence of Tween-20; n = 3; read off a plot
// reported ratio to parent per item

variant_notation | ratio to parent
chain 1 E35R | ~0.21
chain 1 L31N | ~0.13
chain 1 E52K | ~0.06
chain 1 W40F | ~0.81
chain 1 W40S | ~0.77
chain 1 L31R | ~0.04
chain 1 D55K | ~0.12
chain 1 W40D | ~0.8
chain 1 E28K | ~0.06
chain 1 K22E | ~0.05
chain 1 E68K | ~1.1
chain 1 D63K | ~0.03
chain 1 Q27K | ~0.08
chain 1 K66E | ~0.77
